biological target: HLA-A*02:01 (Homo sapiens, UniProt P04439, D140Y/D185E/D98H/E176V/E277Q/G131W/G231S/I119V/I121R/I166T/I218V/L300P/L318F/N151K/N90K/P208A/P217A/Q86G/Q94H/R138H/R169H/T345S); assay: MHC binding assay: UV-ligand exchange and β2m ELISA (peptide exchange yield, Table 7); settings: binding of HLA-class I restricted peptides to HLA-A*02:01, UV-ligand exchange
endpointLabel: Peptide exchange (MHC class I binding score, peptide exchange yield)

Example entries and their recorded answers appear below.
1) 271 (VLIEYNFSI; listed as Homo sapiens) [compound 271] = +++ (≥50% = +++)
2) 150 (VLLDMVHSL; listed as Homo sapiens) [compound 150] = +++ (≥50% = +++)
3) 65 (SLSEKSPEV; listed as Homo sapiens) [compound 65] = ++ (≥20% = ++)
4) 87 (KLLSLLEEA; listed as Homo sapiens) [compound 87] = +++ (≥50% = +++)
5) 188 (VLGEEQEGV; listed as Homo sapiens) [compound 188] = ++ (≥20% = ++)

May I ask what Peptide exchange (MHC class I binding score, peptide exchange yield) has been recorded for 107 (RVLPGQAVTGV; listed as Homo sapiens) [compound 107] ? ++ (≥20% = ++)

May I ask what Peptide exchange (MHC class I binding score, peptide exchange yield) has been recorded for 146 (VVAAHLAGA; listed as Homo sapiens) [compound 146] ? ++ (≥20% = ++)

Attribution: patent US9994628B2
